Test system: rat mesenteric arteries
Assay text: Vasoreactivity in rat mesenteric arteries in vitro (relaxation of U46619-contracted vessels, tension myograph)
Measurement parameters: 30 μM; U46619-contracted third-order arteries
Experimental: Male rats (Sprague-Dawley; 200-250 g) were stunned and killed by cervical dislocation. The mesentery was removed and third-order arteries mounted in an automated tension myograph (Danish Myotechnology). After an equilibration period of 45 min, vessels were normalized and diameter determined. Following normalization, each vessel was contracted repeatedly with the thromboxane A2-mimetic 9,11-dideoxy-11^α,9^α-epoxymethano-prostaglandin F2α (U46619; 1 μM) until the response was reproducible. […]
Label Met when % relaxation 30 μM is at or above 10%; anything below gets Not met.

>>> df
                                   compound  category_label
0  O=C(NC(Cc1ccccc1)C(=O)O)c1cnc2ccccn2c1=O (centres unmarked)             Met
1  CC(C)C(NC(=O)c1cn(Cc2ccccc2)c2ccccc2c1=O)C(=O)O (centres unmarked)         Not met
2  CC(C)CC(NC(=O)c1cnc2ccccn2c1=O)C(=O)O (centres unmarked)             Met
3           CCn1cc(C(=O)O)c(=O)c2ccc(C)nc21             Met
4  CC(C)C(NC(=O)c1cnc2ccccn2c1=O)C(=O)O (centres unmarked)             Met
